The reported measurements were obtained from PubChem BioAssay AID743413.

- System: A549 viability, CellTiter-Glo ATP luminescence, 72 h
- test method notes: toxicity toward A549 lung cells – cell-based, plate reader, dry powder, set 11, cytotoxicity control, dose response (AID 743413)
Calls of active or inactive are those of the source.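 The calls were made as follows: active = compounds lowering cell ATP signal with a fitted AC50 at or below twice their top tested dose; inconclusive = flat curve between 30% and 70% loss, or poor fit; inactive = the rest.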
Possible outcomes: active, inactive

{"compound": "O=C(CSc1c2c(nc3ccc(Cl)cc13)CCCC2)NCCN1CCN(Cc2ccccc2)CC1", "category": "active"}
{"compound": "O=C(CSc1c2c(nc3ccc(Cl)cc13)CCCC2)NCc1cccs1", "category": "inactive"}
{"compound": "O=C(CSc1c2c(nc3ccc(Cl)cc13)CCCC2)N1CCC(N2CCCCC2)CC1", "category": "active"}
{"compound": "O=C(CSc1c2c(nc3ccc(Cl)cc13)CCCC2)NCCCc1ccccc1", "category": "inactive"}
{"compound": "O=C(CSc1c2c(nc3ccc(Cl)cc13)CCCC2)N1CCCCC1", "category": "inactive"}
{"compound": "O=C(CSc1c2c(nc3ccc(Cl)cc13)CCCC2)NC1CC1", "category": "inactive"}
{"compound": "COc1ccc(CNC(=O)CSc2c3c(nc4ccc(Cl)cc24)CCCC3)cc1", "category": "inactive"}
{"compound": "O=C(CSc1c2c(nc3cc(Cl)ccc13)CCCC2)N(Cc1ccco1)C1CCCC1", "category": "inactive"}
{"compound": "COc1ccc(NC(=O)CSc2c3c(nc4ccc(Cl)cc24)CCCC3)cc1", "category": "inactive"}
{"compound": "CCN1CCCC1CNC(=O)CSc1c2c(nc3ccc(Cl)cc13)CCCC2 (stereo not given)", "category": "active"}

---

- test method notes: toxicity toward A549 lung cells – cell-based, plate reader, dry powder, set 11, cytotoxicity control, dose response (AID 743413)
- condition info: A549 viability, CellTiter-Glo ATP luminescence, 72 h; at 26 µM (top of the series)
Activity calls are given as the source filed them.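 Rule for the calls: active = compounds lowering cell ATP signal with a fitted AC50 at or below twice their top tested dose; inconclusive = flat curve between 30% and 70% loss, or poor fit; inactive = the rest.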
attribute measured: activity change, negative = cytotoxicity

{"smiles text": "Cc1ccc2nc(Cl)cc(SCC(=O)NCc3ccco3)c2c1", "test value": "-7.2% (inactive)"}
{"smiles text": "CN(CCNC(=O)CSc1c2c(nc3ccc(Cl)cc13)CCCC2)Cc1ccccc1", "test value": "-8.03% (inactive)"}
{"smiles text": "CCOC(=O)C1CCN(C(=O)c2ccc(OCC(=O)N3CCOCC3)c(OC)c2)CC1", "test value": "-3.29% (inactive)"}
{"smiles text": "NC(=O)C1CCN(C(=O)c2ccc(OCC(=O)Nc3cccc(C(F)(F)F)c3)cc2)CC1", "test value": "8.43% (inactive)"}

---

The entries below come with measured activity change, negative = cytotoxicity values attached.
- test method notes: toxicity toward A549 lung cells – cell-based, plate reader, dry powder, set 11, cytotoxicity control, dose response (AID 743413)
- condition info: A549 viability, CellTiter-Glo ATP luminescence, 72 h; at 26 µM (top of the series)

{"compound": "COc1ccc(OCCNC(=O)c2ccccc2OCC(=O)Nc2ccc(NC(C)=O)cc2)cc1", "activity change, negative = cytotoxicity (%)": -14.7}
{"compound": "Cn1c(=O)cc(SCC(=O)NCc2ccco2)c2ccccc21", "activity change, negative = cytotoxicity (%)": 5.32}
{"compound": "O=C(CSc1cccc2cccnc12)NCc1ccco1", "activity change, negative = cytotoxicity (%)": -1.12}
{"compound": "COc1cc(C(=O)NCCCN(C)C)ccc1OCC(=O)Nc1cccc(C(F)(F)F)c1", "activity change, negative = cytotoxicity (%)": -6.69}
{"compound": "CCOC(=O)C1CCN(C(=O)c2ccc(OCC(=O)Nc3ccc(OCC)cc3)c(OC)c2)CC1", "activity change, negative = cytotoxicity (%)": 5.86}
{"compound": "CC(Sc1c2c(nc3ccc(Cl)cc13)CCCC2)C(=O)NCc1ccco1 (stereo not given)", "activity change, negative = cytotoxicity (%)": -8.08}
{"compound": "O=C(COc1ccc(C(=O)NC2CCCCC2)cc1)Nc1cccc(C(F)(F)F)c1", "activity change, negative = cytotoxicity (%)": -0.017}
{"compound": "CN(C(=O)COc1ccccc1C(=O)Nc1ccccc1)c1ccccc1", "activity change, negative = cytotoxicity (%)": -12}
{"compound": "O=C(CSc1c2c(nc3ccc(Cl)cc13)CCCC2)NC1CCCC1", "activity change, negative = cytotoxicity (%)": -25.2}
{"compound": "O=C(CSc1c2c(nc3ccc(Cl)cc13)CCCC2)NCC1(c2ccccc2)CCCC1", "activity change, negative = cytotoxicity (%)": -1.8}
